- Tested on: CAKI-1 renal
- PROTOCOL DETAILS: NCI tumour cell line growth inhibition, 48 h
Entries and their measured GI50 follow.

See these solved cases before continuing.
O=c1c2cc(F)ccc2sc2c(N3CCNCC3)nc3ccccc3c12    1.59 µM
O=C(N/N=C/c1ccccc1O)c1ccccc1O    0.488 µM
COc1ccc(C(=O)c2cc(OC)c3c(c2)OCO3)cc1O    1.41 µM

Problem: What measured GI50 is associated with C[C@@H]1C[N+]2([O-])[C@H]3C4=CCC[C@@H]4CC[C@H]3[C@@]3(C)OC(=O)CC[C@]34CC[C@H]1[C@@H]42 (stereo partly drawn) on CAKI-1 renal?
Solution: > 60 µM

Problem: // lookup GI50 | system=CAKI-1 renal | key= FC(F)(F)c1nnn[n-]1.[Au+].c1ccc([PH+](c2ccccc2)c2ccccc2)cc1
Solution: 3.6 µM

Problem: Provide value of GI50 for this record tested with CAKI-1 renal: CN1CCc2c(c3ccccc3c3ccccc23)C1
Solution: 4.12 µM

Problem: Any idea what GI50 came out for O=C(O)CNC(=O)C(CS)Cc1ccccc1 (stereo not drawn) on CAKI-1 renal?
Solution: > 25 µM

Problem: Recall the recorded GI50 for C(#Cc1cnccn1)/C=C\C#Cc1cnccn1 with CAKI-1 renal and state it.
Solution: 2.14 µM
